# System: MDA-MB-435
Outcome codes: yes (active), no (inactive)

- compound: "Brc1cccc(-c2cc(-c3ccc4c(c3)OCCO4)[nH]n2)c1"
  class: "yes"
- compound: "CC(C)(C)OC(=O)n1cc(CNC(=S)Nc2ccccc2)c2ccccc21"
  class: "no"
- compound: "CC(=O)OCC1OC(O[C@@H]2C[C@H]3C(C)(C)[C@H](OC(C)=O)CC[C@]3(C)[C@H]3CCC4=C([C@@H](C)C[C@@H](O)[C@H](O)C(C)(C)O)CC[C@@]4(C)[C@@]32C)C(O)C(O)C1O (stereo partly drawn)"
  class: "no"
- compound: "COC(=O)C1OC(O[C@H]2CCC3(C)C(CCC4(C)C3CC=C3C5CC(C)(C)CCC5(C(=O)O)CC[C@]34C)C2(C)C)C(O)C(OC2OC(CO)C(O)C(O)C2O)C1O (stereo partly drawn)"
  class: "no"
- compound: "NC(CO)Cc1cnc[nH]1 (stereo not drawn)"
  class: "no"
- compound: "CC(C)(C)c1cc(O)c(O)c(C(C)(C)C)c1"
  class: "no"
- compound: "Cc1nn(-c2ccc(F)cc2)c2ncnc(Nc3ccc(NC(=O)Nc4ccc(Cl)c(C(F)(F)F)c4)cc3)c12"
  class: "no"
- compound: "C[C@@H]1CC[C@@H]2[C@@H]1[C@H](OC(=O)/C=C/c1ccccc1)[C@]1(c3ccccc3)C[C@@H](OC(=O)CO)[C@@]2(C)O1"
  class: "no"
